# System: DMS-114
# test_summary: NCI tumour cell line growth inhibition, 48 h
Activity calls are given as the source filed them. No stated cut-off is given here; in the data, active = GI50 up to about 1.1 µM and inactive = higher.
// allowed return values: active, inactive

Q: Dear all, I need the recorded test outcome for O=C(O)CSc1ccc2nc3ccccc3c(O)c2c1 , thank you.
Ans: inactive

Q: Hi, do you know how CCOC(=O)c1cn(CC)c2cc3c(cc2c1=O)SCS3 came out in this test?
Ans: inactive

Q: Give the logged outcome of this assay for the following compound: CC(C)c1cccc2sc(NC(=O)C(=O)C(C#N)c3cccc4ccccc34)nc12 (stereo not drawn)
Ans: inactive

---

Measured GI50, listed per entry.
# Tested on: 786-0
# test_summary: NCI tumour cell line growth inhibition, 48 h
Calls of active or inactive are those of the source. No stated cut-off is given here; in the data, active = GI50 up to about 1.1 µM and inactive = higher. Bridge positions count the residues as written; N and C are the ends. Square brackets hold non-standard residues; d marks the D form. Peptide text beside a SMILES is read from it. I, II: the chains in the order shown. * marks the point of attachment. Quinoxaline2carbonyl = O=C(c1cnc2ccccc2n1)*; NMeV = CN[CH](C(=O)O)C(C)C; NMeC = CN[CH](CS)C(=O)O

COc1ccc(C2=NN(C(=O)c3cccnc3)C(O)(c3cc(F)c(Cl)cc3Cl)C2)cc1OC (centres undefined); 22 µM (inactive)
COC1C(O)C(C)OC(O[C@@H]2C[C@H]3CC[C@@H]4[C@H](CC[C@]5(C)[C@@H](C6=CC(=O)OC6)CC[C@]45O)[C@@]3(C)[C@H](O)C2)C1O (some centres undefined); 0.149 µM (active)
CC1C2=CC=C(O2)C(C)(C)C2=CC=C(O2)C(C)(C)C2=CC=C(O2)C(C)(C)C2=CC=C1O2; > 100 µM (inactive)

We next turn to a different compound, shown below.
Field GI50 (786-0), entry CC1NC(=O)C(NC(=O)c2cnc3ccccc3n2)COC(=O)C(C(C)C)N(C)C(=O)C2CSSCC(C(=O)N(C)C(C(C)C)C(=O)OCC(NC(=O)c3cnc4ccccc4n3)C(=O)NC(C)C(=O)N2C)N(C)C1=O (centres undefined) (I: Quinoxaline2carbonyl-SA[NMeC][NMeV] / II: Quinoxaline2carbonyl-SA[NMeC][NMeV]; ester I:1-II:C, I:C-II:1; disulfide I:3-II:3; configuration not given here) : < 0.01 µM (active)

---

Below is a list of entries, each paired with its recorded GI50 value.
# Test system: NCI/ADR-RES
# test_summary: NCI tumour cell line growth inhibition, 48 h
Active and inactive are the calls of the source. Rule as the data show it: active = GI50 up to about 1.1 µM and inactive = higher.

CC(=O)Nc1c(C)cc2c(nc3n2CCC3OC(C)=O)c1[N+](=O)[O-] (stereo not given); > 100 µM (inactive)

Form field GI50, entry CCCCC#CS(=O)(=O)C(F)(F)F : 47.3 µM (inactive)

Per the record, C=CC/N=C(\S)Nc1sc2c(c1C(=O)OCC)CC(C)CC2 (stereo not given) has GI50 of 31.1 µM (inactive)

Entry under test: O=C1NC(c2ccccc2)C1N(Cc1ccccc1)Cc1ccccc1 (stereo not given) . Its GI50 was > 100 µM (inactive)

So for N=C(N)N/N=C\c1c(-c2ccccc2)nc2sccn12 , the logged GI50 turned out to be 18.2 µM (inactive)

According to the records, this molecule COC(=O)C1(Cc2ccccc2)Cc2ccc3c(c2C1=O)CCC3 (stereo not given) displays GI50 of 23.7 µM (inactive)

Record CC1C(c2ccc(N(C)C)cc2)c2cc3c(cc2OC1N1CCCC1)OCO3 (stereo not given) . Reported GI50: 33.6 µM (inactive)

Lab note: measured GI50 of CC(C)(C)OC(=O)N1CCCC1C(=O)NC(c1ccccc1)c1ccccc1 (stereo not given) was > 100 µM (inactive)

Short answer for O=[N+]([O-])C(=C(\Cl)NCCO)/C(Cl)=C(/Cl)Br : GI50 was 2.34 µM (inactive)

Just so you know, measured GI50 for COC(=O)Nc1nc2ccc(S(=O)(=O)SC)cc2[nH]1 came out at 3.61 µM (inactive)

---

# Test system: SNB-19
# test_summary: NCI tumour cell line growth inhibition, 48 h
Activity calls are given as the source filed them. Cut-off read from the data, not from the text of the source: active = GI50 up to about 1.1 µM and inactive = higher.
measured_metric: GI50

Below, 3 compounds whose answers are already recorded.
Cc1ccc([S+]([O-])C[C@@]2(C(F)F)NC(=O)NC2=O)cc1 (stereo partly specified); > 100 µM (inactive)
O=C(CCC(=O)N/N=C/c1ccccc1O)N/N=C/c1ccccc1O; 56.6 µM (inactive)
COc1cc(C)c2c(c1C=O)Oc1c(c(C)c(O)c3c1C(O)OC3=O)OC2=O (stereo unspecified); 14.5 µM (inactive)

Entry C=CC/N=C(\S)Nc1sc2c(c1C(=O)OCC)CC(C)CC2 (stereo unspecified) ; GI50 = 26.3 µM (inactive)

// GI50 lookup, compound = CC1CN1c1c(C(=O)/C=C/c2ccc(Cl)cc2)c(-c2ccccc2)nn(C)c1=O (stereo unspecified) , result: 9.71 µM (inactive)

The compound identified as COC(=O)c1c(C)nc(C)c(NO)c1-c1ccccc1C(F)(F)F registered its GI50 at > 100 µM (inactive)

---

# Test system: NCI-H226
# test_summary: NCI tumour cell line growth inhibition, 48 h
Active and inactive are the calls of the source. Cut-off read from the data, not from the text of the source: active = GI50 up to about 1.1 µM and inactive = higher.
Give one outcome, nothing more. List: active, inactive

Observe how each entry below is paired with its result.
O=C1Nc2ccccc2SC1=C(C(=O)c1ccccc1)C(=O)c1ccccc1; inactive
CN(NC(=O)c1ccc(Cl)cc1)C1=NCCCCN1; inactive
COc1ccccc1/C=C1/Sc2scc(CC(=O)Nc3ccccc3)[n+]2C1=O; inactive
COC(=O)C1=C(C)N2CCCOC2(C)C(C(=O)OC)C1c1cccc(Cl)c1 (stereo unspecified); inactive
CSCC[C@@H]1C(=O)N(C)[C@H](C(C)(C)C)N1C(=O)c1ccccc1; inactive

Q: Name the outcome recorded for Cn1c(-c2ccc[se]2)ccc1-c1ccc(C=O)[se]1 in the assay.
Ans: active

---

Below is a list of entries, each paired with its recorded GI50 value.
# System: 786-0
# test_summary: NCI tumour cell line growth inhibition, 48 h
Active and inactive are the calls of the source. Cut-off read from the data, not from the text of the source: active = GI50 up to about 1.1 µM and inactive = higher.

Example results:
COC(=O)C1(Cc2ccccc2)Cc2ccc3c(c2C1=O)CCC3 (stereo unspecified); 33.7 µM (inactive)
O=C(Cc1ccccc1)NCCc1ccc(O)c(O)c1; 93.3 µM (inactive)
CC1=NOC(=O)/C1=C/c1ccc2c(c1)OCO2; 21.9 µM (inactive)
CN(c1ccccc1)c1c(Cl)c(=O)oc2c1ccc1occc12; > 100 µM (inactive)
Cc1nc2ccccc2nc1-c1ccc(/N=[N+](\[O-])c2ccc(-c3nc4ccccc4nc3C)cc2)cc1; 45.5 µM (inactive)

Now look at this one.
Value of GI50 reported for the molecule CC1=C[C@]2(O)C(=O)[C@H](C)C[C@H]3[C@@H](CC[C@@](C)(O)/C=C\2C1=O)C3(C)C is 18.9 µM (inactive)

---

Recorded measurements of GI50, one per entry
# System: SK-OV-3
# test_summary: NCI tumour cell line growth inhibition, 48 h
Active and inactive are the calls of the source. Cut-off read from the data, not from the text of the source: active = GI50 up to about 1.1 µM and inactive = higher.

CC(C)c1cccc(C(C)C)c1NC(=O)C(=O)C1CCC2=C(Sc3ccccc3N2)C1=O (stereo unspecified); 60.8 µM (inactive)

Reported GI50 of Cc1ccc(SC(CCC(Sc2ccc(C)cc2)Sc2ccc(C)cc2)Sc2ccc(C)cc2)cc1 : > 100 µM (inactive)

# GI50 of CC(=O)/C(=C/N1CCNC1=S)C(=O)Nc1ccccc1C = > 100 µM (inactive)

GI50 for NCCSc1nc(N)c2ncn(C3OC(CO)C(O)C3O)c2n1 (stereo unspecified) is > 100 µM (inactive)

So, C/C(=N/NC(=S)N(C)C)c1ccccc1O ? Its GI50 was > 44.5 µM (inactive)

GI50 reading for CCc1nc2ccccc2c(=O)n1/N=C(\N=N\c1ccc(Cl)cc1)c1ccc(N(C)C)cc1 : 27.7 µM (inactive)

Query O=c1c2cc(I)ccc2nc(-c2cccs2)n1/N=C/c1ccccc1 yields GI50 of > 100 µM (inactive)

---

# Tested on: PC-3
# test_summary: NCI tumour cell line growth inhibition, 48 h
The source made the active and inactive calls. No stated cut-off is given here; in the data, active = GI50 up to about 1.1 µM and inactive = higher. Bridge positions count the residues as written; N and C are the ends. Square brackets hold non-standard residues; d marks the D form. Peptide text beside a SMILES is read from it. I, II: the chains in the order shown. * marks the point of attachment. Quinoxaline2carbonyl = O=C(c1cnc2ccccc2n1)*; NMeV = CN[CH](C(=O)O)C(C)C; NMeC = CN[CH](CS)C(=O)O
measured_metric: GI50

Solved cases (5 shown):
CC1NC(=O)C(NC(=O)c2cnc3ccccc3n2)COC(=O)C(C(C)C)N(C)C(=O)C2CSSCC(C(=O)N(C)C(C(C)C)C(=O)OCC(NC(=O)c3cnc4ccccc4n3)C(=O)NC(C)C(=O)N2C)N(C)C1=O (centres undefined) (I: Quinoxaline2carbonyl-SA[NMeC][NMeV] / II: Quinoxaline2carbonyl-SA[NMeC][NMeV]; ester I:1-II:C, I:C-II:1; disulfide I:3-II:3; configuration not given here); < 0.01 µM (active)
C=C(CC[C@@H](C)[C@H]1CC[C@@]2(C)C3=C(CC[C@]12C)[C@@]1(C)CC[C@H](O)[C@@H](C)C1CC3)C(C)C (some centres undefined); 1.07 µM (active)
CCCCCC(=O)OCC1(CO)C/C(=C\CC(C(C)C)C(C)C)C(=O)O1 (centres undefined); > 100 µM (inactive)
CC(C)(/C=N\O)NO; > 10 µM (inactive)
CC(=O)/C(=C/N1CCNC1=S)C(=O)Nc1ccccc1C; > 100 µM (inactive)

Recorded GI50 (compound CC(=O)OC12c3ccccc3-c3ccccc3C1C1C(=O)OC(=O)C12 (centres undefined) ): > 10 µM (inactive)

CCCN(CCC)C(=S)N/N=C/c1cccc(C)n1 yielded GI50 of 0.0773 µM (active)

Summary for this compound, NC(=O)Cc1nc2c(N)ncnc2n1C1OC(CO)C(O)C1O (centres undefined) : GI50 is > 100 µM (inactive)

Lab note: measured GI50 of Oc1c(Br)cc(CN(Cc2cc(Br)c(O)c(Br)c2)C2CCCCC2)cc1Br was > 100 µM (inactive)
